SYSTEM UNDER TEST: human P2X3 receptor (Homo sapiens (Human))
Sequence (P56373 whole entry): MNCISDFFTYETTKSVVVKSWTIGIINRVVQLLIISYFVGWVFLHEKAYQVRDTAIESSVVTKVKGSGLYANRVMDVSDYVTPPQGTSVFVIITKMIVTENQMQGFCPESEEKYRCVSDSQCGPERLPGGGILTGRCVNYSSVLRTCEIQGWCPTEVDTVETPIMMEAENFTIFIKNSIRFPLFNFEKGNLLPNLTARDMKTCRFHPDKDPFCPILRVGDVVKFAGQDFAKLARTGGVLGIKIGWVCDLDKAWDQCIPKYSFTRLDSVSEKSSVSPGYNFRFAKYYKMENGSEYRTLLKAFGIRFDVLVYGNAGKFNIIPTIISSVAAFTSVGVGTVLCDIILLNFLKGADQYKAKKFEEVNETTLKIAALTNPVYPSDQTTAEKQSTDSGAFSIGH
TEST PROTOCOL: Intracellular calcium measurement (FLIPR, Fluo-4) of antagonist activity at human P2X3 receptors
Assay type: cell-based
CONDITION DESCRIPTION: human P2X3, FLIPR calcium assay, agonist α,β-Me-ATP; read-out: hP2X3 IC50
REPORTED PROPERTY: IC50 (µM)

# example entries with known answers
>>> endpoint_result("Cc1cnc(-c2cc(OC[C@H]3COCC(=O)N3C)cc(C(=O)N[C@H](C)c3cnc(C(F)(F)F)nc3)c2)s1")
0.03
>>> endpoint_result("Cc1ccc([C@@H](C)NC(=O)c2cc(OC[C@@H]3CCCO3)cc(-c3ncc(C4CCC4)s3)c2)nn1")
0.113
>>> endpoint_result("CC(C)c1cnc(-c2cc(OC[C@H]3CCCO3)cc(C(=O)N[C@H](C)c3ccc(C(F)(F)F)nn3)c2)s1")
0.037

(A) COC(C)(C)COc1cc(C(=O)N[C@H](C)c2cnc(C(F)(F)F)nc2)cc(-c2ncc(Cl)s2)c1
(B) CC(=O)N1CCC(Oc2cc(C(=O)N[C@H](C)c3cnc(C(F)(F)F)nc3)cc(-c3ncc(C)s3)c2)CC1
Asked: Quick check, higher IC50 between A and B ? Your answer should be the label attached to the chosen record.
Given back: A
(A: 0.21 µM, B: 0.012 µM)

(A) Cc1cnc(-c2cc(OC3COC3)cc(C(=O)NCc3ccc(C(F)(F)F)nn3)c2)s1
(B) Cc1cnc([C@@H](C)NC(=O)c2cc(OC[C@H]3CCOC3)cc(-c3ncc(C)s3)c2)cn1
Asked: Quick check, higher IC50 between A and B ? Your answer should be the label attached to the chosen record.
Given back: A

* * *

SYSTEM UNDER TEST: human P2X2/3 receptor (Homo sapiens (Human), UniProt P56373+Q9UBL9)
Sequence (P56373 whole entry): as above
Sequence (Q9UBL9 whole entry): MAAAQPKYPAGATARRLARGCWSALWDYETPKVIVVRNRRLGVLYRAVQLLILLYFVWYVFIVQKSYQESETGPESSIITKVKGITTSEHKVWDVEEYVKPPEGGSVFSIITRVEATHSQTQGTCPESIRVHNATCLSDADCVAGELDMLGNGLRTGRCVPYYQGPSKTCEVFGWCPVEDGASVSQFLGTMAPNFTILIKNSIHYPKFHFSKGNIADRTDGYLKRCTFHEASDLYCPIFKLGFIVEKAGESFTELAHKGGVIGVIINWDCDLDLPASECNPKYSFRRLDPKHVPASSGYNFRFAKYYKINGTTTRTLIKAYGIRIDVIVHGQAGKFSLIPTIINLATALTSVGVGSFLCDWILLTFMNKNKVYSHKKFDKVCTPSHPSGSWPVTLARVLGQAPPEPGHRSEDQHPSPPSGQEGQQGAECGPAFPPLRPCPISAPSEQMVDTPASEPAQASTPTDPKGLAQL
TEST PROTOCOL: Intracellular calcium measurement (FLIPR, Fluo-4) of antagonist activity at human P2X2/3 receptors
Type: cell-based
CONDITION DESCRIPTION: human P2X2/3, FLIPR calcium assay, agonist α,β-Me-ATP; read-out: hP2X2/3 IC50
pIC50: −log10 of the molar value.
REPORTED PROPERTY: pIC50

>>> endpoint_result("Cc1ccc([C@@H](C)NC(=O)c2cc(OC[C@@H]3CCCO3)cc(-c3ncc(C4CCC4)s3)c2)nn1")
6.12
>>> endpoint_result("Cc1cnc(-c2cc(O[C@@H]3C[C@H]4CC[C@@H](C3)N4C)cc(C(=O)N[C@H](C)c3cnc(C(F)(F)F)nc3)c2)s1")
5.76
>>> endpoint_result("Cc1cnc(-c2cc(OC[C@@H]3CN(C)CCO3)cc(C(=O)N[C@H](C)c3ccc(C(F)(F)F)nc3)c2)s1")
6.00

* * *

Reported pIC50 is given for each of the following compounds.
SYSTEM UNDER TEST: human P2X2/3 receptor (Homo sapiens (Human), UniProt P56373+Q9UBL9)
TEST PROTOCOL: Intracellular calcium measurement (FLIPR, Fluo-4) of antagonist activity at human P2X2/3 receptors
Type: cell-based
CONDITION DESCRIPTION: human P2X2/3, FLIPR calcium assay, agonist α,β-Me-ATP; read-out: hP2X2/3 IC50
pIC50: −log10 of the molar value.

# example entries with known answers
>>> endpoint_result("C#CCOc1cc(C(=O)NCc2cnc(C)cn2)cc(-c2ncc(C)s2)c1 [Example 35]")
"≤ 5.00"
>>> endpoint_result("Cc1cnc(-c2cc(OC3CN(C)C3)cc(C(=O)N[C@H](C)c3ccc(C(F)(F)F)nn3)c2)s1 [Example 211]")
"≤ 5.00"

Asked: Which pIC50 reading was recorded for the compound Cc1cnc(-c2cc(OC[C@H]3CN(C)CCO3)cc(C(=O)N[C@@H](C)c3cnc(C(F)(F)F)nc3)c2)s1 [Example 416] ?
Given back: ≤ 5.00

* * *

SYSTEM UNDER TEST: human P2X2/3 receptor (Homo sapiens (Human), UniProt P56373+Q9UBL9)
TEST PROTOCOL: Intracellular calcium measurement (FLIPR, Fluo-4) of antagonist activity at human P2X2/3 receptors
Format: cell-based
CONDITION DESCRIPTION: human P2X2/3, FLIPR calcium assay, agonist α,β-Me-ATP; read-out: hP2X2/3 IC50
pIC50: −log10 of the molar value.
REPORTED PROPERTY: pIC50

# example entries with known answers
>>> endpoint_result("CCc1cnc(-c2cc(OC[C@@H]3CCCO3)cc(C(=O)N[C@H](C)c3ccc(C(F)(F)F)nn3)c2)s1")
6.84
>>> endpoint_result("CC(C)c1cnc(-c2cc(O[C@@H]3CCOC3)cc(C(=O)N[C@H](C)c3ccc(C(F)(F)F)nn3)c2)s1")
5.97
>>> endpoint_result("Cc1cnc(-c2cc(O[C@@H]3CCOC3)cc(C(=O)NCc3ccc(C(F)(F)F)nn3)c2)s1")
6.35
>>> endpoint_result("Cc1cnc(-c2cc(OC[C@H]3CCOC3)cc(C(=O)N[C@H](C)c3cnc(C(F)(F)F)nc3)c2)s1")
7.11
>>> endpoint_result("Cc1cnc(-c2cc(OC[C@H]3COCCO3)cc(C(=O)N[C@H](C)c3ccc(C(F)(F)F)nc3)c2)s1")
6.05

(I) Cc1cnc(-c2cc(O[C@@H]3CCOC3)cc(C(=O)N[C@H](C)c3nnc(C)s3)c2)s1
(II) Cc1cnc(-c2cc(O[C@@H]3CCCN(C(=O)OC(C)(C)C)C3)cc(C(=O)N[C@H](C)c3cnc(C(F)(F)F)nc3)c2)s1
Asked: Quick check, higher pIC50 between I and II ? Your answer should be the label attached to the chosen record.
Given back: II
(II: 6.68, I: 6.31)

(a) C[C@@H](NC(=O)c1cc(OC2CCOCC2)cc(-c2ncc(Cl)s2)c1)c1ccc(C(F)(F)F)nn1
(b) Cc1cnc(-c2cc(OCC3CCOCC3)cc(C(=O)NC(C)c3ncc(F)cc3Cl)c2)s1 (stereo not drawn)
(c) Cc1cnc(-c2cc(OC3CCOCC3)cc(C(=O)NC(C)c3ncc(Cl)cc3F)c2)s1 (stereo not drawn)
Asked: Arrange these 3 molecules in increasing order of pIC50. Would you mind listing the labels in the order asked for?
Given back: b, a, c
(b: 5.97, a: 6.42, c: 7.47)

(A) Cc1cnc(-c2cc(OC3CCN(C)CC3)cc(C(=O)N[C@H](C)c3ccc(C(F)(F)F)nn3)c2)s1
(B) Cc1cnc(-c2cc(OC3COC3)cc(C(=O)N[C@H](C)c3cnc(C(F)F)nc3)c2)s1
Asked: Quick check, higher pIC50 between A and B ? Your answer should be the label attached to the chosen record.
Given back: B
(B: 6.28, A: 5.99)

* * *

SYSTEM UNDER TEST: human P2X2/3 receptor (Homo sapiens (Human), UniProt P56373+Q9UBL9)
TEST PROTOCOL: Intracellular calcium measurement (FLIPR, Fluo-4) of antagonist activity at human P2X2/3 receptors
Type: cell-based
CONDITION DESCRIPTION: human P2X2/3, FLIPR calcium assay, agonist α,β-Me-ATP; read-out: hP2X2/3 IC50
REPORTED PROPERTY: IC50 (nM)

>>> endpoint_result("Cc1cnc(-c2cc(OC3COC3)cc(C(=O)N[C@H](C)c3ccc(Cl)cn3)c2)s1 [Example 46]")
389
>>> endpoint_result("Cc1cnc(-c2cc(Oc3nnc(C)s3)cc(C(=O)N[C@H](C)c3cnc(C(F)(F)F)nc3)c2)s1 [Example 111]")
380
>>> endpoint_result("Cc1cnc(-c2cc(OC[C@@H]3CN(C)CCO3)cc(C(=O)N[C@H](C)c3cnc(C(F)(F)F)nc3)c2)s1 [Example 351]")
690
